Data provenance: patent US20250147039A1

Experiment: Formation of 1,5-cz-[Ln(Lig)] from Lig and Ln^III ions (metal dependent click-zip), MOPS/NaOH buffer pH 7.0, analytical HPLC (Charts 1, 2)
Conditions: Ce^III; after 1 hour at 80° C.; MOPS/NaOH buffer pH 7.0
Give measured conversion to 1,5-cz-[Ln(Lig)], Ce^III for each item. Keep answers brief.

input: Please report the measured conversion to 1,5-cz-[Ln(Lig)], Ce^III for C#Cc1cccc(CN2CCN(CC(=O)NCC(=O)O)CCN(Cc3cc(-c4ccccc4)cc(CN=[N+]=[N-])n3)CCN(CC(=O)NCC(=O)O)CC2)n1
output: 20%

input: Please report the measured conversion to 1,5-cz-[Ln(Lig)], Ce^III for C#Cc1cccc(CN2CCN(CC(=O)O)CCN(Cc3cccc(CN=[N+]=[N-])n3)CCN(CP(=O)(O)O)CC2)n1
output: 1%

input: Please report the measured conversion to 1,5-cz-[Ln(Lig)], Ce^III for C#Cc1cccc(CN2CCN(CC(=O)O)CCN(Cc3cc(-c4ccc(C(=O)O)cc4)cc(CN=[N+]=[N-])n3)CCN(CC(=O)O)CC2)n1
output: 1%

input: Please report the measured conversion to 1,5-cz-[Ln(Lig)], Ce^III for C#Cc1cccc(CN2CCN(CC(=O)O)CCN(Cc3cc(-c4ccccc4)cc(CN=[N+]=[N-])n3)CCN(CC(=O)O)CC2)n1
output: 1%

input: Please report the measured conversion to 1,5-cz-[Ln(Lig)], Ce^III for [N-]=[N+]=NCc1cccc(CN2CCN(CC(=O)O)CCN(Cc3cccc(C#CC4CCNCC4)n3)CCN(CC(=O)O)CC2)n1
output: 0%

input: Please report the measured conversion to 1,5-cz-[Ln(Lig)], Ce^III for [N-]=[N+]=NCc1cc(-c2ccccc2)cc(CN2CCN(CC(=O)O)CCN(Cc3cccc(C#CCN)n3)CCN(CC(=O)O)CC2)n1
output: 0%

input: Please report the measured conversion to 1,5-cz-[Ln(Lig)], Ce^III for CC(C)(N)C#Cc1cccc(CN2CCN(CC(=O)O)CCN(Cc3cc(-c4ccccc4)cc(CN=[N+]=[N-])n3)CCN(CC(=O)O)CC2)n1
output: 0%

input: Please report the measured conversion to 1,5-cz-[Ln(Lig)], Ce^III for [N-]=[N+]=NCc1cccc(CN2CCN(CC(=O)O)CCN(Cc3cccc(C#CC4CC4)n3)CCN(CC(=O)O)CC2)n1
output: 0%

input: Please report the measured conversion to 1,5-cz-[Ln(Lig)], Ce^III for C#Cc1cccc(CN2CCN(CC(=O)O)CCN(Cc3cc(C(=O)OC)cc(CN=[N+]=[N-])n3)CCN(CC(=O)O)CC2)n1
output: 0%

input: Please report the measured conversion to 1,5-cz-[Ln(Lig)], Ce^III for C#Cc1cccc(CN2CCN(CP(=O)(O)OCC)CCN(Cc3cccc(CN=[N+]=[N-])n3)CCN(CP(=O)(O)OCC)CC2)n1
output: 0%

----------
Give measured conversion to 1,5-cz-[Ln(Lig)], Gd^III for each item. Keep answers brief.
Experiment: Formation of 1,5-cz-[Ln(Lig)] from Lig and Ln^III ions (metal dependent click-zip), MOPS/NaOH buffer pH 7.0, analytical HPLC (Charts 1, 2)
Conditions: Gd^III; after 1 week at 80° C.; MOPS/NaOH buffer pH 7.0
Give the quantity in %, number only.

input: Please report the measured conversion to 1,5-cz-[Ln(Lig)], Gd^III for CC(C)(C#Cc1cccc(CN2CCN(CC(=O)O)CCN(Cc3cccc(CN=[N+]=[N-])n3)CCN(CC(=O)O)CC2)n1)NC(=O)OC(C)(C)C
output: 2

input: Please report the measured conversion to 1,5-cz-[Ln(Lig)], Gd^III for C#Cc1cccc(CN2CCN(CP(=O)(O)c3ccccc3)CCN(Cc3cccc(CN=[N+]=[N-])n3)CCN(CP(=O)(O)c3ccccc3)CC2)n1
output: 28

input: Please report the measured conversion to 1,5-cz-[Ln(Lig)], Gd^III for CC(C)(C)C#Cc1cccc(CN2CCN(CC(=O)O)CCN(Cc3cccc(CN=[N+]=[N-])n3)CCN(CC(=O)O)CC2)n1
output: 54

input: Please report the measured conversion to 1,5-cz-[Ln(Lig)], Gd^III for C#Cc1cccc(CN2CCN(CC(=O)O)CCN(Cc3cc(Cl)cc(CN=[N+]=[N-])n3)CCN(CC(=O)O)CC2)n1
output: 86

input: Please report the measured conversion to 1,5-cz-[Ln(Lig)], Gd^III for [N-]=[N+]=NCc1cc(-c2ccccc2)cc(CN2CCN(CC(=O)O)CCN(Cc3cccc(C#CCN)n3)CCN(CC(=O)O)CC2)n1
output: 19

input: Please report the measured conversion to 1,5-cz-[Ln(Lig)], Gd^III for C#Cc1cccc(CN2CCN(CP(=O)(O)OCC)CCN(Cc3cccc(CN=[N+]=[N-])n3)CCN(CP(=O)(O)OCC)CC2)n1
output: 86

----------
Test: Alkali metal dependent formation of 1,5-cz-Lig and 1,4-cz-Lig isomers from Lig at pH 10.2 (Chart 14)
Format: physicochemical
Conditions: B: 1 day at 80° C.; Borate/(M^I)2CO3 buffer pH 10.2
Give measured conversion to 1,5-cz-Lig isomer, Cs^I for each item. Keep answers brief.

input: Please report the measured conversion to 1,5-cz-Lig isomer, Cs^I for C#Cc1cccc(CN2CCN(CC(=O)O)CCN(Cc3cc(-c4ccccc4)cc(CN=[N+]=[N-])n3)CCN(CC(=O)O)CC2)n1 [TD647]
output: 7%

input: Please report the measured conversion to 1,5-cz-Lig isomer, Cs^I for C#Cc1cccc(CN2CCN(CP(=O)(O)c3ccccc3)CCN(Cc3cccc(CN=[N+]=[N-])n3)CCN(CP(=O)(O)c3ccccc3)CC2)n1 [TD921]
output: 21%

input: Please report the measured conversion to 1,5-cz-Lig isomer, Cs^I for C#Cc1cccc(CN2CCN(CP(=O)(O)O)CCN(Cc3cccc(CN=[N+]=[N-])n3)CCN(CP(=O)(O)O)CC2)n1 [TD581]
output: 6%

input: Please report the measured conversion to 1,5-cz-Lig isomer, Cs^I for C#Cc1cccc(CN2CCN(CC(=O)O)CCN(Cc3cccc(CN=[N+]=[N-])n3)CCN(CP(=O)(O)O)CC2)n1 [TD714]
output: 9%

----------
Assay: Dissociation of chelates in aq. 0.1M HCl at RT (acid decomplexation kinetic inertness) (Chart 20)
Assay type: physicochemical
Conditions: 1 week
ENDPOINT NAME: fraction of intact chelate
Answer format: value, then unit.

input: Please report the measured fraction of intact chelate for O=C1C[N@@]2CC[N@]3CC[N@@](CC[N@](CC2)Cc2cccc(n2)-c2cnnn2Cc2cc(-c4ccccc4)cc(n2)C3)CC(=O)[O][Dy][O]1
output: 100%

input: Please report the measured fraction of intact chelate for O=C1C[N@@]2CC[N@]3CC[N@@](CC[N@](CC2)Cc2cccc(n2)-c2cnnn2Cc2cc(-c4ccccc4)cc(n2)C3)CC(=O)[O][Tb][O]1
output: 100%

input: Please report the measured fraction of intact chelate for O=C1C[N@@]2CC[N@]3CC[N@@](CC[N@](CC2)Cc2cccc(n2)-c2cnnn2Cc2cc(-c4ccccc4)cc(n2)C3)CC(=O)[O][Ho][O]1
output: 100%

input: Please report the measured fraction of intact chelate for O=C1C[N@@]2CC[N@]3CC[N@@](CC[N@](CC2)Cc2cccc(n2)-c2cnnn2Cc2cc(-c4ccccc4)cc(n2)C3)CC(=O)[O][Cd][O]1
output: 100%

input: Please report the measured fraction of intact chelate for O=C([O-])CN1CCN2CCN(CC(=O)[O-])CCN(CC1)Cc1cccc(n1)-c1cnnn1Cc1cc(-c3ccccc3)cc(n1)C2.[Pb+2]
output: 0%

input: Please report the measured fraction of intact chelate for O=C1C[N@@]2CC[N@]3CC[N@@](CC[N@](CC2)Cc2cccc(n2)-c2cnnn2Cc2cc(-c4ccccc4)cc(n2)C3)CC(=O)[O][Gd][O]1
output: 100%

----------
Assay: Formation of 1,5-cz-[Ln(Lig)] from Lig and Ln^III ions (metal dependent click-zip), MOPS/NaOH buffer pH 7.0, analytical HPLC (Charts 1, 2)
Conditions: Gd^III; after 1 hour at 80° C.; MOPS/NaOH buffer pH 7.0
Give measured conversion to 1,5-cz-[Ln(Lig)], Gd^III for each item. Keep answers brief.
Give the quantity in %, number only.

input: Please report the measured conversion to 1,5-cz-[Ln(Lig)], Gd^III for [N-]=[N+]=NCc1cccc(CN2CCN(CC(=O)O)CCN(Cc3cccc(C#CC45CC6CC(CC(C6)C4)C5)n3)CCN(CC(=O)O)CC2)n1 [TD992]
output: 1

input: Please report the measured conversion to 1,5-cz-[Ln(Lig)], Gd^III for C#Cc1cccc(CN2CCN(CC(=O)O)CCN(Cc3cccc(CN=[N+]=[N-])n3)CCN(CP(=O)(O)O)CC2)n1 [TD714]
output: 9

input: Please report the measured conversion to 1,5-cz-[Ln(Lig)], Gd^III for C#Cc1cccc(CN2CCN(CC(=O)NCC(=O)O)CCN(Cc3cc(-c4ccccc4)cc(CN=[N+]=[N-])n3)CCN(CC(=O)NCC(=O)O)CC2)n1 [TD778]
output: 4

input: Please report the measured conversion to 1,5-cz-[Ln(Lig)], Gd^III for C#Cc1cccc(CN2CCN(CC(=O)O)CCN(Cc3cc(C(=O)OC(C)C)cc(CN=[N+]=[N-])n3)CCN(CC(=O)O)CC2)n1 [TD1148]
output: 5

input: Please report the measured conversion to 1,5-cz-[Ln(Lig)], Gd^III for [N-]=[N+]=NCc1cccc(CN2CCN(CC(=O)O)CCN(Cc3cccc(C#CI)n3)CCN(CC(=O)O)CC2)n1 [TD1204]
output: 1

input: Please report the measured conversion to 1,5-cz-[Ln(Lig)], Gd^III for C#Cc1cccc(CN2CCN(CC(=O)O)CCN(Cc3cc(N(C)C)cc(CN=[N+]=[N-])n3)CCN(CC(=O)O)CC2)n1 [TD1176]
output: 7

input: Please report the measured conversion to 1,5-cz-[Ln(Lig)], Gd^III for [N-]=[N+]=NCc1cc(-c2ccccc2)cc(CN2CCN(CC(=O)O)CCN(Cc3cccc(C#CCN)n3)CCN(CC(=O)O)CC2)n1 [TD722]
output: 2

input: Please report the measured conversion to 1,5-cz-[Ln(Lig)], Gd^III for C#Cc1cccc(CN2CCN(CCC(=O)O)CCN(Cc3cccc(CN=[N+]=[N-])n3)CCN(CCC(=O)O)CC2)n1 [TD801]
output: 0

input: Please report the measured conversion to 1,5-cz-[Ln(Lig)], Gd^III for C#CCN(CC#C)CCN1CCN(CC(=O)O)CCN(Cc2cc(-c3ccccc3)cc(CN=[N+]=[N-])n2)CCN(CC(=O)O)CC1 [TD669]
output: 0

input: Please report the measured conversion to 1,5-cz-[Ln(Lig)], Gd^III for C#Cc1cccc(CN2CCN(CP(=O)(O)OCC)CCN(Cc3cccc(CN=[N+]=[N-])n3)CCN(CP(=O)(O)OCC)CC2)n1 [TD582]
output: 15

input: Please report the measured conversion to 1,5-cz-[Ln(Lig)], Gd^III for C#Cc1cccc(CN2CCN(CC(=O)O)CCN(Cc3cc(C(F)(F)F)cc(CN=[N+]=[N-])n3)CCN(CC(=O)O)CC2)n1 [TD1063]
output: 5

input: Please report the measured conversion to 1,5-cz-[Ln(Lig)], Gd^III for C#Cc1cccc(CN2CCN(CC(=O)O)CCN(Cc3cccc(CN=[N+]=[N-])n3)CCN(CC(=O)O)CC2)n1 [TD556]
output: 5

input: Please report the measured conversion to 1,5-cz-[Ln(Lig)], Gd^III for C#Cc1cccc(CN2CCN(CC(N)=O)CCN(Cc3cc(-c4ccccc4)cc(CN=[N+]=[N-])n3)CCN(CC(N)=O)CC2)n1 [TD779]
output: 3

input: Please report the measured conversion to 1,5-cz-[Ln(Lig)], Gd^III for CC(C)(C#Cc1cccc(CN2CCN(CC(=O)O)CCN(Cc3cccc(CN=[N+]=[N-])n3)CCN(CC(=O)O)CC2)n1)NC(=O)OC(C)(C)C [TD1105]
output: 1

input: Please report the measured conversion to 1,5-cz-[Ln(Lig)], Gd^III for [N-]=[N+]=NCc1cccc(CN2CCN(CC(=O)O)CCN(Cc3cccc(C#CC4CCNCC4)n3)CCN(CC(=O)O)CC2)n1 [TD1127]
output: 1

input: Please report the measured conversion to 1,5-cz-[Ln(Lig)], Gd^III for C#Cc1cccc(CN2CCN(CC(=O)O)CCN(Cc3cc(-c4ccccc4)cc(CN=[N+]=[N-])n3)CCN(CC(=O)O)CC2)n1 [TD647]
output: 5

input: Please report the measured conversion to 1,5-cz-[Ln(Lig)], Gd^III for CC(C)(C)C#Cc1cccc(CN2CCN(CC(=O)O)CCN(Cc3cccc(CN=[N+]=[N-])n3)CCN(CC(=O)O)CC2)n1 [TD959]
output: 1

input: Please report the measured conversion to 1,5-cz-[Ln(Lig)], Gd^III for C#Cc1cccc(CN2CCN(CP(=O)(O)c3ccccc3)CCN(Cc3cccc(CN=[N+]=[N-])n3)CCN(CP(=O)(O)c3ccccc3)CC2)n1 [TD921]
output: 0

input: Please report the measured conversion to 1,5-cz-[Ln(Lig)], Gd^III for C#Cc1cccc(CN2CCN(CC(=O)O)CCN(Cc3cc(-c4ccc(C(=O)O)cc4)cc(CN=[N+]=[N-])n3)CCN(CC(=O)O)CC2)n1 [TD742]
output: 5

input: Please report the measured conversion to 1,5-cz-[Ln(Lig)], Gd^III for [N-]=[N+]=NCc1cccc(CN2CCN(CC(=O)O)CCN(Cc3cccc(C#CC4CC4)n3)CCN(CC(=O)O)CC2)n1 [TD943]
output: 0

input: Please report the measured conversion to 1,5-cz-[Ln(Lig)], Gd^III for C#Cc1cccc(CN2CCN(CC(=O)O)CCN(Cc3cc(C(=O)OC)cc(CN=[N+]=[N-])n3)CCN(CC(=O)O)CC2)n1 [TD1092]
output: 2

input: Please report the measured conversion to 1,5-cz-[Ln(Lig)], Gd^III for C#CCNC(=O)CN1CCN(CC(=O)O)CCN(Cc2cc(-c3ccccc3)cc(CN=[N+]=[N-])n2)CCN(CC(=O)O)CC1 [TD425]
output: 0

input: Please report the measured conversion to 1,5-cz-[Ln(Lig)], Gd^III for CC(C)(N)C#Cc1cccc(CN2CCN(CC(=O)O)CCN(Cc3cc(-c4ccccc4)cc(CN=[N+]=[N-])n3)CCN(CC(=O)O)CC2)n1 [TD1054]
output: 3

input: Please report the measured conversion to 1,5-cz-[Ln(Lig)], Gd^III for [N-]=[N+]=NCc1cccc(CN2CCN(CC(=O)O)CCN(Cc3cccc(C#Cc4ccccc4)n3)CCN(CC(=O)O)CC2)n1 [TD944]
output: 0
